- TARGET ENTITY: Indoleamine 2,3-dioxygenase 1 (Mus musculus)
- EXPERIMENT: Inhibition of mouse IDO1 overexpressed in mouse P815B cells using L-Trp as substrate assessed as kynurenine level at 10 uM by HPLC analysis relative to control
- Type: cell-based
Measured inhibition accompanies every entry in the list below.

Previously resolved entries follow.
{"COMPOUND": "COc1ccc(C(O)CNC2=CC(=O)c3ccn(S(=O)(=O)c4ccc(C)cc4)c3C2=O)cc1 (stereo not given)", "TEST VALUE": "24.3%"}
{"COMPOUND": "COc1ccc(C(O)CNC2=CC(=O)c3c(c(CCNC(=O)OC(C)(C)C)cn3S(=O)(=O)c3ccc(C)cc3)C2=O)cc1 (stereo not given)", "TEST VALUE": "17.4%"}
{"COMPOUND": "O=C1c2[nH]cc3c2C(=NCC3)c2[nH]cc(-c3ccc(O)cc3)c21", "TEST VALUE": "5.3%"}

Okay, now this compound:
Task: Would you mind telling me what inhibition value was observed for COc1ccc(C(O)CNC2=CC(=O)c3c(ccn3S(=O)(=O)c3ccc(C)cc3)C2=O)cc1 (stereo not given) ?
Output: 37.3%
